Consider the following compounds; for each one, report its EC50.
Target: human cloned CHRM5 receptor (Homo sapiens, UniProt P08912)
Sequence (P08912 1-532): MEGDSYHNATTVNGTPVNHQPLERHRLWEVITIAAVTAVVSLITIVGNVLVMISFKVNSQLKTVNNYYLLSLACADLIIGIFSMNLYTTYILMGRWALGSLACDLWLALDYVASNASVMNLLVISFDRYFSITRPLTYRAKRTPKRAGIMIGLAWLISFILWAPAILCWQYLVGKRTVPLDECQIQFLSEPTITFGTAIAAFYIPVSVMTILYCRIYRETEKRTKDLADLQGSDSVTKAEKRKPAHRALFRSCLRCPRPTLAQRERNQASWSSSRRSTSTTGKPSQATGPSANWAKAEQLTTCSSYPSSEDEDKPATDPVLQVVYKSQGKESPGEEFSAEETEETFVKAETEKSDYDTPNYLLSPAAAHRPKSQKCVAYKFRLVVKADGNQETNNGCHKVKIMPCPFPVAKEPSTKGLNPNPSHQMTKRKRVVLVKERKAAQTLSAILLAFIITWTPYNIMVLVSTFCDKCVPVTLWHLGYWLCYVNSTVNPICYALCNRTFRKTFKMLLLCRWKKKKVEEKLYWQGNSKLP
Assay: CHRM5 Ca++ Flux Assay (M5_CHO cells, agonist mode)
Settings: agonist mode, geometric mean if tested more than once, read-out: M5 FDSS EC50
Structures can show the parent of a compound that is named as a salt.

[[record]]
compound = "CC(C)(C#N)COc1ccc(F)cc1C1CCN([C@@H]2COC3(C2)CN(c2nnco2)C3)CC1 [Example 1E]"
property = "EC50"
reported_measurement = "> 25 µM"

[[record]]
compound = "c1ccc(C2CCN([C@@H]3COC4(C3)CN(c3nnco3)C4)CC2)c(-c2ncco2)c1 [Example 1X]"
property = "EC50"
reported_measurement = "> 25 µM"

[[record]]
compound = "c1ccc(C2CCN([C@@H]3COC4(C3)CN(c3nncs3)C4)CC2)c(OC2COC2)c1 [Example 5Q, formate salt]"
property = "EC50"
reported_measurement = "> 25 µM"


For every listed record, write down its EC50.
1. Fc1ccc(OC[C@H]2CCO2)c(C2CCN([C@@H]3COC4(C3)CN(c3nncs3)C4)CC2)c1.O=C(O)C(F)(F)F (single isomer, unassigned) [Example 2C]
2. Fc1ccc(OC2COC2)c(C2CCN([C@@H]3COC4(C3)CN(c3nncs3)C4)CC2)c1 [Example 5G]
3. Fc1ccc(OC[C@H]2COCCO2)c(C2CCN([C@@H]3COC4(C3)CN(c3nncs3)C4)CC2)c1 [Example 5K]
4. Fc1cc(F)c(OC2CC3(COC3)C2)c(C2CCN([C@@H]3COC4(C3)CN(c3nnco3)C4)CC2)c1 [Example 2AA]

Ans.
1: > 25 µM; 2: > 25 µM; 3: 6.64 µM; 4: > 25 µM

###

Hi there, I'd appreciate the recorded Emax for every entry that follows.
Molecular target: human cloned CHRM4 receptor (Homo sapiens, UniProt P08173)
Construct: expressed in transfected cells; host or cells: CHO-K1 (M4_CHO)
Sequence (P08173 whole entry): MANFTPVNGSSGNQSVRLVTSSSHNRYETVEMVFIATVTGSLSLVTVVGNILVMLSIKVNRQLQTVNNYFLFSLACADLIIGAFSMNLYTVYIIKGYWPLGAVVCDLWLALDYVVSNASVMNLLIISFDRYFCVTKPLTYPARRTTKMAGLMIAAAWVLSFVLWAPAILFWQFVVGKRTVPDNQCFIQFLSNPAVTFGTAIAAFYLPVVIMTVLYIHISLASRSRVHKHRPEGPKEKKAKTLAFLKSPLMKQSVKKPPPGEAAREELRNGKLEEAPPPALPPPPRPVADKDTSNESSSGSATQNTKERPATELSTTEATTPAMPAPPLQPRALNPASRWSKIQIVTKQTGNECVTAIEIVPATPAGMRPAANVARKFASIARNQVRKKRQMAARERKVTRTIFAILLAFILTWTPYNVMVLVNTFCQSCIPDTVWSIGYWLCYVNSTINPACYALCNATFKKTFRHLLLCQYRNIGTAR
Assay: CHRM4 Ca++ Flux Assay (M4_CHO cells, agonist mode)
Assay type: cell-based
Conditions: Percent Activity (PA), read-out: M4 FDSS PA %
One number for each entry, in %.

Field: example entries. Status: answers known.
[[record]]
compound = "CC(C)(O)COc1ccc(F)cc1C1CCN([C@@H]2COC3(C2)CN(c2nncs2)C3)CC1 [Example 5U]"
tested_target = "human cloned CHRM4 receptor (Homo sapiens, UniProt P08173)"
units = "%"
reported_measurement = 67

[[record]]
compound = "COc1ccccc1C1CCN([C@@H]2COC3(C2)CN(c2ncns2)C3)CC1 [Example 5B]"
tested_target = "human cloned CHRM4 receptor (Homo sapiens, UniProt P08173)"
units = "%"
reported_measurement = 59

[[record]]
compound = "Fc1ccc(C2CCN([C@@H]3COC4(C3)CN(c3ncco3)C4)CC2)c(OC2COC2)c1 [Example 4S]"
tested_target = "human cloned CHRM4 receptor (Homo sapiens, UniProt P08173)"
units = "%"
reported_measurement = 74


Would you be so kind as to report Emax for each listed record?
1. Cc1nnc(COc2ccc(F)cc2C2CCN([C@@H]3COC4(C3)CN(c3nnco3)C4)CC2)s1 [Example 2E]
2. CCc1nnc(COc2ccc(F)cc2C2CCN([C@@H]3COC4(C3)CN(c3nnco3)C4)CC2)s1 [Example 2T]
3. CC(C)(O)CCOc1cc(F)ccc1C1CCN([C@@H]2COC3(C2)CN(c2nnco2)C3)CC1 [Example 1T]
4. Fc1ccc(OC2COC2)c(C2CCN([C@@H]3COC4(C3)CN(c3nnco3)C4)CC2)c1 [Example 1A]

Ans.
1: 85; 2: 89; 3: 45; 4: 82

Lab note: c1ccc(C2CCN([C@@H]3COC4(C3)CN(c3nnco3)C4)CC2)c(-c2ncco2)c1 [Example 1X] gave Emax of 84

Where do the numbers come from? From patent US11485742B2.
